- target: NAMPT (human, recombinant, C-terminally His-tagged) (Homo sapiens, UniProt P43490)
- Sequence (P43490 whole entry): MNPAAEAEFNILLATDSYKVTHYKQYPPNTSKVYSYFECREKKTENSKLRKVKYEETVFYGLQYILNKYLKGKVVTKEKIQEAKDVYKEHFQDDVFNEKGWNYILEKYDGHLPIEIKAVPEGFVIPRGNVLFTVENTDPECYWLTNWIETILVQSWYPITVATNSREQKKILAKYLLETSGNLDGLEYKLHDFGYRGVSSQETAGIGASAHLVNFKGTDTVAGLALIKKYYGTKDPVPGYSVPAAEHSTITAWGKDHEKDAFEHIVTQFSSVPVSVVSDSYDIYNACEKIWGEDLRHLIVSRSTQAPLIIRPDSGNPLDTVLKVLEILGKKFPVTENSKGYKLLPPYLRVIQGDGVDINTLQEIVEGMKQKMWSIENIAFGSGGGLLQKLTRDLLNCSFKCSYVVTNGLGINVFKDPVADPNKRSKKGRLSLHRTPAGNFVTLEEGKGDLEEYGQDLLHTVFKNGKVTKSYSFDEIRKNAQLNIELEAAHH
- methodNotes: Time-Resolved Fluorescence Resonance Energy Transfer (TR-FRET) Binding Assay of NAMPT
- experimentalContext: without substrates; 6.8 nM NAMPT, 200 nM probe, 3 hours equilibration
pIC50: −log10 of the molar value.
attributeMeasured: pIC50

1. O=C(NCc1ccn2ccnc2c1)c1ccc(-c2cnn(CCN3CCNCC3)c2)s1 [Example 809]; 7.02
2. COCCC(=O)N(C[C@H]1CCCO1)c1ncc(C(=O)NCc2ccc3nccn3c2)s1 [Example 145]; 6.72
3. O=C(Cc1ccn2ccnc2c1)Nc1ccc(NC(=O)CC2CCCC2)cc1 [Example 739]; 7.42

(a) O=C(NCc1ccn2ccnc2c1)Nc1ccc(C2CCN(C(=O)[C@H]3CCOC3)C2)cc1 (stereo partly shown) [Example 388]
(b) O=C(NCc1ccn2ccnc2c1)c1ccc(C2CCN(C(=O)c3ccncc3)C2)s1 (stereo not shown) [Example 773]
(c) O=C(NCc1ccc2nccn2c1)c1ccc(OC2CCN(C(=O)[C@H]3CCCO3)CC2)cc1 [Example 165]
(d) O=C(NCc1ccn2ccnc2c1)c1ccc(-c2cnn(CC3CCOC3)c2)o1 (stereo not shown) [Example 478]
(e) O=C(NCc1ccn2ccnc2c1)c1ccc(-c2cnn(CC3CCOC3)c2)s1 (stereo not shown) [Example 252]
Problem: Ascending by pIC50, please: list the compounds accordingly. Give me the labels in the order the question wants.
Solution: c, a, d, b, e

(A) CC(C)(C)OC(=O)N1CCC(CCCCNC(=O)Nc2ccc3nccn3c2)CC1 [Example 58]
(B) COCCC(=O)N(Cc1ccc(C#N)cc1)c1ccc(C(=O)NCc2ccc3nccn3c2)cc1 [Example 240]
(C) O=C(NCc1ccn2ccnc2c1)c1ccc(C2CCN(C(=O)c3cccc(Cl)c3)CC2)cc1 [Example 527]
Problem: List items by pIC50 in falling order. Give me the labels in the order the question wants.
Solution: C, A, B

(A) O=C(NCc1ccn2ccnc2c1)Nc1ccc(-c2cnn(CC3CCCO3)c2)cc1 (stereo not shown) [Example 674]
(B) O=C(NCc1ccn2ccnc2c1)Nc1ccc(C2CCN(C(=O)CC(F)(F)F)CC2)cc1 [Example 713]
(C) O=C(CCc1ccccc1)Nc1ccc(NC(=O)NCc2ccn3ccnc3c2)cc1 [Example 285]
Problem: List items by pIC50 in falling order. Give me the labels in the order the question wants.
Solution: B, C, A
(B: 7.35, C: 7.08, A: 6.53)

(a) CC(C)(C)OC(=O)N1CCC(c2ccc(C(=O)NCc3ccn4ncnc4c3)cc2)CC1 [Example 563]
(b) O=C(NCc1ccn2ccnc2c1)c1ccc(C2CCN(C(=O)Cc3cccc(F)c3)C2)s1 (stereo not shown) [Example 761]
(c) O=C(NCc1ccn2ccnc2c1)Nc1ccc(C2CCN(C(=O)CC3CCOCC3)C2)cc1 (stereo not shown) [Example 391]
(d) O=C(NCc1ccc2nccn2c1)c1ccc(-c2cnn(CC3CCCCC3)c2)s1 [Example 179]
Problem: List items by pIC50 in falling order. Give me the labels in the order the question wants.
Solution: d, b, c, a

(A) COCCC(=O)N(CCC(C)C)c1ncc(C(=O)NCc2ccc3nccn3c2)s1 [Example 61]
(B) CCC(=O)C(=O)N1CCC(c2ccc(C(=O)NCc3ccn4ccnc4c3)cc2)CC1 [Example 518]
(C) O=C(NCc1ccn2ccnc2c1)c1ccc(C2CCN(C(=O)c3cccc(F)c3)C2)s1 (stereo not shown) [Example 762]
Problem: List items by pIC50 in falling order. Give me the labels in the order the question wants.
Solution: C, A, B
(C: 7.52, A: 7.11, B: 6.63)

(P) O=C(NCc1ccn2ccnc2c1)Nc1ccc(OC2CN(C(=O)[C@H]3CCCO3)C2)cc1 [Example 431]
(Q) O=C(NCc1ccn2ccnc2c1)c1ccc(C2CCN(C(=O)CC3CCOCC3)CC2)s1 [Example 262]
(R) O=C(NCc1ccn2ccnc2c1)c1ccc(C2CCN(C(=O)c3cccc(F)c3)CC2)cc1 [Example 516]
(S) O=C(Nc1ccc(NC(=O)C2COCCO2)cc1)Nc1ccc2nccn2c1 (stereo not shown) [Example 50]
Problem: Ascending by pIC50, please: list the compounds accordingly. Give me the labels in the order the question wants.
Solution: S, P, R, Q

(P) O=C(CC1CCOC1)Nc1ccc(NC(=O)Nc2ccc3nccn3c2)cc1 (stereo not shown) [Example 26]
(Q) O=C(NCc1ccn2ccnc2c1)c1ccc(N2C[C@@H](O)CC2=O)s1 [Example 268]
Problem: // task: argmin of pIC50 over [ P , Q ] API: response body contains the label of the selected item.
Solution: Q

(P) COCCNC(=O)N(CC1CCOCC1)c1ncc(C(=O)NCc2ccc3nccn3c2)s1 [Example 151]
(Q) CC(=O)N1CC(Oc2ccc(NC(=O)NCc3ccn4ccnc4c3)cc2)C1 [Example 424]
Problem: // task: argmin of pIC50 over [ P , Q ] API: response body contains the label of the selected item.
Solution: P
(P: 5.15, Q: 6.01)

Where do the numbers come from? From patent US9187472B2.
